// provenance: patent US11970511B2

# targetSystem: His-tagged recombinant human Gal-3 (hGal-3) (Homo sapiens, UniProt P17931)
# Sequence (P17931 whole entry): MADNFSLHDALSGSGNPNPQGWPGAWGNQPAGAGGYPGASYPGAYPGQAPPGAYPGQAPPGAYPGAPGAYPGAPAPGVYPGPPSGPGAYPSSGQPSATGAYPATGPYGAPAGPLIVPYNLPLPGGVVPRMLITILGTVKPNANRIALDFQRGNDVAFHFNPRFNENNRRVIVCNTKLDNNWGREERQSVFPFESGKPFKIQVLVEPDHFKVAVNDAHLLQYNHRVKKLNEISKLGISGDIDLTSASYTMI
# method: Gal-3 HTRF assay: His-tagged hGal-3 binding to B-ASF, Anti-His terbium antibody / Streptavidin d2 detection;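 note: compound preincubated 30 min with hGal-3, then 1 h with B-ASF, DMSO wells with B-ASF serving as positive control and those lacking B-ASF as negative control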
# conditionContext: 15 nM hGal-3, 15 nM B-ASF, three replicates, room temperature
Recorded pIC50 by entry
Please report pIC50 as the negative decimal logarithm of the molar concentration, giving only the number.

Any idea what its pIC50 is? The compound is COc1ncc(-c2cn([C@H]3COC[C@@H](S[C@@H]4O[C@H](CO)[C@H](O)[C@H](n5cc(-c6cc(F)c(F)c(F)c6)nn5)[C@H]4OCC(=O)N4CC(O)C4)[C@@H]3O)nn2)cn1 [Example 34]
7.62

Please do the same for CO[C@@H]1[C@@H](n2cc(-c3cncs3)nn2)[C@@H](O)[C@@H](CO)O[C@H]1S[C@@H]1COC[C@H](n2cc(-c3ccccc3)nn2)[C@H]1O [Example A7] as well.
6.08

Please do the same for COc1ncc(-c2cn([C@H]3COC[C@@H](S[C@@H]4O[C@H](CO)[C@H](O)[C@H](n5cc(-c6cc(F)c(F)c(F)c6)nn5)[C@H]4OCC(=O)O)[C@@H]3O)nn2)cn1 [Example 30] as well.
8.10

Please do the same for COc1cnc(-c2cn([C@H]3COC[C@@H](S[C@@H]4O[C@H](CO)[C@H](O)[C@H](n5cc(-c6cc(F)c(F)c(F)c6)nn5)[C@H]4OC)[C@@H]3O)nn2)nc1N [Example 21] as well.
7.64

Please do the same for CC(=O)N1C[C@@H](S[C@@H]2O[C@H](CO)[C@H](O)[C@H](n3cc(-c4cc(F)c(F)c(F)c4)nn3)[C@H]2OCC(=O)O)[C@H](O)[C@@H](n2cc(-c3cccc(F)c3)nn2)C1 [Example B4] as well.
7.49

Please do the same for COC1C(SC2CN(C(C)=O)CC(n3cc(-c4cccc(F)c4)nn3)C2O)OC(CO)C(O)C1n1cc(-c2cc(F)c(F)c(F)c2)nn1 (centres unmarked) [Example B2] as well.
7.43

Please do the same for CO[C@@H]1[C@@H](n2cc(-c3cncnc3)nn2)[C@@H](O)[C@@H](CO)O[C@H]1S[C@@H]1COC[C@H](n2cc(-c3ccccc3)nn2)[C@H]1O [Example A6] as well.
6.44

Please do the same for COC1C(SC2CNCC(n3cc(-c4cccc(F)c4)nn3)C2O)OC(CO)C(O)C1n1cc(-c2cc(F)c(F)c(F)c2)nn1 (centres unmarked) [Example B1] as well.
7.17

Please do the same for CN(C(=O)COC1C(SC2COCC(n3cc(-c4cncnc4)nn3)C2O)OC(CO)C(O)C1n1cc(-c2cc(F)c(F)c(F)c2)nn1)c1ccccc1 (centres unmarked) [Example 29] as well.
7.60

Please do the same for COC(=O)C12CCC(c3cn(C4C(O)C(CO)OC(SC5COCC(n6cc(-c7ccccc7)nn6)C5O)C4OC)nn3)(CC1)CC2 (centres unmarked) [Example A11] as well.
5.73

Please do the same for CO[C@@H]1[C@@H](n2cc(-c3cccnc3)nn2)[C@@H](O)[C@@H](CO)O[C@H]1S[C@@H]1COC[C@H](n2cc(-c3ccccc3)nn2)[C@H]1O [Example A1] as well.
5.96
